Consider the following compounds; for each one, report its maximal growth inhibition.
system: SUDIPGVI (diffuse intrinsic pontine glioma line); test: maximal growth inhibition (yFin) relative to DMSO / staurosporine; higher = more efficacious
Write down the numeric answer in % and omit the unit.

What value of maximal growth inhibition has been recorded for this entry: `CN1CCCN(C(=O)c2cccc(-c3ccc(/C=C4/C(=O)Nc5ccc(Cl)cc54)o3)c2)CC1`
108

What value of maximal growth inhibition has been recorded for this entry: `CC[C@]1(O)C[C@H]2CN(CCc3c([nH]c4ccccc34)[C@@](C(=O)OC)(c3cc4c(cc3OC)N(C=O)[C@H]3[C@@](O)(C(=O)OC)[C@H](OC(C)=O)[C@]5(CC)C=CCN6CC[C@]43[C@@H]65)C2)C1`
77.9

What value of maximal growth inhibition has been recorded for this entry: `O=C(Nc1ccc(Nc2nccc(Nc3cc(C4CCCC4)[nH]n3)n2)cc1)Nc1cccc(C(F)(F)F)c1`
111

What value of maximal growth inhibition has been recorded for this entry: `COC(=O)Nc1nc2cc(C(=O)c3ccccc3)ccc2[nH]1`
22.1

What value of maximal growth inhibition has been recorded for this entry: `N#CN=C(NCCCCCCOc1ccc(Cl)cc1)Nc1ccncc1`
93.6

What value of maximal growth inhibition has been recorded for this entry: `c1ccc2c(-c3cnn4cc(-c5ccc(N6CCNCC6)cc5)cnc34)ccnc2c1`
105

What value of maximal growth inhibition has been recorded for this entry: COc1cc(F)ccc1-c1ncnc(Nc2cccc(CS(C)(=N)=O)c2)n1 (stereo not drawn)
89.8

What value of maximal growth inhibition has been recorded for this entry: `Fc1ccc(-c2c3cccc(C(F)(F)F)c3nn2Cc2ccc(F)cc2Cl)cc1`
42.8

----------
test system: HGGX2 (paediatric high-grade glioma line); test: EC50 (inflection of fitted growth-inhibition curve) (log10 M)
REPORTED_PROPERTY: EC50 (log10 M)

What value of EC50 (log10 M) has been recorded for this entry: `O=C1NC(=O)C(c2cnc3ccccn23)=C1c1cn2c3c(cc(F)cc13)CN(C(=O)N1CCCCC1)CC2`
-4.66

What value of EC50 (log10 M) has been recorded for this entry: `CC(C)(C)c1cnc(CSc2cnc(NC(=O)C3CCNCC3)s2)o1`
-6.28

What value of EC50 (log10 M) has been recorded for this entry: CCCS(=O)(=O)c1nc(NC2CC2)cc(-c2ccc3c(ccn3C3CC(C)(C)NC(C)(C)C3)c2)n1 [NVS-1]
-5.95

What value of EC50 (log10 M) has been recorded for this entry: `Cc1ccc2nc(NCCN)c3ncc(C)n3c2c1`
-5.19

What value of EC50 (log10 M) has been recorded for this entry: CN(C)C/C=C/C(=O)Nc1ccc(C(=O)Nc2cccc(Nc3ncc(Cl)c(-c4c[nH]c5ccccc45)n3)c2)cc1 [THZ1]
-7.58

----------
test system: iAstro (astrocyte control); experiment: maximal growth inhibition (yFin) relative to DMSO / staurosporine; higher = more efficacious
Hi, to clarify the labels: yes covers maximal growth inhibition from 30% upward, no covers anything below 30%.

// inclusive: maximal growth inhibition at least 30%? input: Cc1nc(Nc2ncc(C(=O)Nc3c(C)cccc3Cl)s2)cc(N2CCN(CCO)CC2)n1 [DASATINIB]
yes

// inclusive: maximal growth inhibition at least 30%? input: `COc1ccc(Cn2ccc3ccc(C(=O)NO)cc32)cc1`
yes

// inclusive: maximal growth inhibition at least 30%? input: `CC(C)(C)c1cnc(CSc2cnc(NC(=O)C3CCNCC3)s2)o1`
no

// inclusive: maximal growth inhibition at least 30%? input: CCOC(=O)CCNc1cc(N2CCc3ccccc3CC2)nc(-c2ccccn2)n1 [GSK-J4]
yes

// inclusive: maximal growth inhibition at least 30%? input: O=C(Nc1ccc([N+](=O)[O-])cc1Cl)c1cc(Cl)ccc1O [NICOLSAMIDE]
yes

// inclusive: maximal growth inhibition at least 30%? input: COC(=O)[C@]12CCC(C)(C)C[C@H]1[C@H]1C(=O)C=C3[C@@]4(C)C=C(C#N)C(=O)C(C)(C)[C@@H]4CC[C@@]3(C)[C@]1(C)CC2 [BARDOXOLONE METHYL]
yes

// inclusive: maximal growth inhibition at least 30%? input: `CC(C)c1cc(C(=O)N2Cc3ccc(CN4CCN(C)CC4)cc3C2)c(O)cc1O`
yes

// inclusive: maximal growth inhibition at least 30%? input: COc1cccc2c1C(=O)c1c(O)c3c(c(O)c1C2=O)C[C@@](O)(C(=O)CO)C[C@@H]3O[C@H]1C[C@H](N)[C@H](O)[C@H](C)O1 [DOXORUBICIN]
no

----------
system: HGGX2; experiment: maximal growth inhibition (yFin) relative to DMSO / staurosporine; higher = more efficacious
REPORTED_PROPERTY: maximal growth inhibition (%)
Write down the numeric answer in % and omit the unit.

What value of maximal growth inhibition has been recorded for this entry: O=C(Nc1ccccc1-c1cn2c(CN3CCNCC3)csc2n1)c1cnc2ccccc2n1 [SRT1720]
99.1

What value of maximal growth inhibition has been recorded for this entry: CCCS(=O)(=O)c1nc(NC2CC2)cc(-c2ccc3c(ccn3C3CC(C)(C)NC(C)(C)C3)c2)n1 [NVS-1]
86.7

What value of maximal growth inhibition has been recorded for this entry: C[C@@H](Oc1cc(-c2cnn(C3CCNCC3)c2)cnc1N)c1c(Cl)ccc(F)c1Cl [CRIZOTINIB]
97.4

What value of maximal growth inhibition has been recorded for this entry: O=C(Nc1ccc(Nc2nccc(Nc3cc(C4CCCC4)[nH]n3)n2)cc1)Nc1cccc(C(F)(F)F)c1 [CD532]
111

What value of maximal growth inhibition has been recorded for this entry: `CC(C)(C)c1cnc(CSc2cnc(NC(=O)C3CCNCC3)s2)o1`
57

What value of maximal growth inhibition has been recorded for this entry: CCN(CC)CCNC(=O)c1c(C)[nH]c(/C=C2\C(=O)Nc3ccc(F)cc32)c1C [SUNITINIB]
108

What value of maximal growth inhibition has been recorded for this entry: COc1cc(F)ccc1-c1ncnc(Nc2cccc(CS(C)(=N)=O)c2)n1 (centres undefined)
57.3

What value of maximal growth inhibition has been recorded for this entry: CC(=O)OC[C@H]1O[C@@H]([S-])[C@H](OC(C)=O)[C@@H](OC(C)=O)[C@@H]1OC(C)=O.CCP(CC)CC.[Au+] [AURANOFIN]
110

What value of maximal growth inhibition has been recorded for this entry: CN(C)C/C=C/C(=O)Nc1cc2c(Nc3ccc(F)c(Cl)c3)ncnc2cc1O[C@H]1CCOC1 [AFATINIB]
109

----------
test system: SUDIPGIV (diffuse intrinsic pontine glioma line); assay: EC50 (inflection of fitted growth-inhibition curve) (log10 M)
Consider the following compounds; for each one, report its EC50 (log10 M).
Keep it simple and answer with nothing but the number.

Hi! What's the reported EC50 (log10 M) for `C[C@@H](Oc1cc(-c2cnn(C3CCNCC3)c2)cnc1N)c1c(Cl)ccc(F)c1Cl` on SUDIPGIV?
-4.85

Hi! What's the reported EC50 (log10 M) for COc1ccc(C[C@H](NC(=O)[C@H](C)NC(=O)CN2CCOCC2)C(=O)N[C@@H](Cc2ccccc2)C(=O)C2(C)CO2)cc1 (stereo in doubt) on SUDIPGIV?
-6.84

Hi! What's the reported EC50 (log10 M) for `N=C(N)c1ccc(N=NNc2ccc(C(=N)N)cc2)cc1` on SUDIPGIV?
-5.18

Hi! What's the reported EC50 (log10 M) for `C[C@@H]1O[C@@H](O[C@H]2C[C@@H](O)[C@]3(CO)[C@H]4[C@H](O)C[C@]5(C)[C@@H](C6=CC(=O)OC6)CC[C@]5(O)[C@@H]4CC[C@]3(O)C2)[C@H](O)[C@H](O)[C@H]1O` on SUDIPGIV?
-6.75

----------
test system: SUDIPGVI; test: EC50 (inflection of fitted growth-inhibition curve) (log10 M)
Consider the following compounds; for each one, report its EC50 (log10 M).
Keep it simple and answer with nothing but the number.

What value of EC50 (log10 M) has been recorded for this entry: C[C@@H](Oc1cc(-c2cnn(C3CCNCC3)c2)cnc1N)c1c(Cl)ccc(F)c1Cl [CRIZOTINIB]
-5.01

What value of EC50 (log10 M) has been recorded for this entry: O=C(Nc1c[nH]nc1-c1nc2ccc(CN3CCOCC3)cc2[nH]1)NC1CC1 [AT9283]
-4.97

What value of EC50 (log10 M) has been recorded for this entry: `CC(C)(C)c1cnc(CSc2cnc(NC(=O)C3CCNCC3)s2)o1`
-6.37

What value of EC50 (log10 M) has been recorded for this entry: Nc1ccccc1NC(=O)c1ccc(CNc2nccc(-c3cccnc3)n2)cc1 [MOCETINOSTAT]
-5.98

What value of EC50 (log10 M) has been recorded for this entry: CC(C)c1cc(-c2n[nH]c(=O)n2-c2ccc3c(ccn3C)c2)c(O)cc1O [GANETESPIB]
-7.86

What value of EC50 (log10 M) has been recorded for this entry: COC(=O)Nc1nc2cc(C(=O)c3ccccc3)ccc2[nH]1 [MEBENDAZOLE]
-5.51

What value of EC50 (log10 M) has been recorded for this entry: N#CN=C(NCCCCCCOc1ccc(Cl)cc1)Nc1ccncc1 [GMX-1778]
-7.79

What value of EC50 (log10 M) has been recorded for this entry: Nc1ccc2ncnc(NCCc3ccc(Oc4ccccc4)cc3)c2c1 [EVP4593]
-8.43

What value of EC50 (log10 M) has been recorded for this entry: CN(C)C/C=C/C(=O)Nc1cc2c(Nc3ccc(F)c(Cl)c3)ncnc2cc1O[C@H]1CCOC1 [AFATINIB]
-4.84

What value of EC50 (log10 M) has been recorded for this entry: CCNC(=O)c1noc(-c2cc(C(C)C)c(O)cc2O)c1-c1ccc(CN2CCOCC2)cc1 [NVP-AUY922]
-7.36

What value of EC50 (log10 M) has been recorded for this entry: Cc1c(C2CCN(CCc3ccccc3)CC2)noc1-c1ccc(Cl)cc1 [L-741,742]
-4.81

What value of EC50 (log10 M) has been recorded for this entry: C[C@@]12OC(=O)[C@]1([C@@H](O)[C@@H]1C=CCCC1)NC(=O)[C@@H]2CCCl [MARIZOMIB]
-7.2

What value of EC50 (log10 M) has been recorded for this entry: COC(=O)[C@]12CCC(C)(C)C[C@H]1[C@H]1C(=O)C=C3[C@@]4(C)C=C(C#N)C(=O)C(C)(C)[C@@H]4CC[C@@]3(C)[C@]1(C)CC2 [BARDOXOLONE METHYL]
-5.63

What value of EC50 (log10 M) has been recorded for this entry: COc1ccc(C[C@H](NC(=O)[C@H](C)NC(=O)CN2CCOCC2)C(=O)N[C@@H](Cc2ccccc2)C(=O)C2(C)CO2)cc1 (stereo in doubt) [ONX-0914]
-6.72

What value of EC50 (log10 M) has been recorded for this entry: CC(C)C[C@H](NC(=O)CNC(=O)c1cc(Cl)ccc1Cl)B(O)O [IXAZOMIB]
-7.33

What value of EC50 (log10 M) has been recorded for this entry: CC(=O)OC[C@H]1O[C@@H]([S-])[C@H](OC(C)=O)[C@@H](OC(C)=O)[C@@H]1OC(C)=O.CCP(CC)CC.[Au+] [AURANOFIN]
-5.76

What value of EC50 (log10 M) has been recorded for this entry: COc1cc(F)ccc1-c1ncnc(Nc2cccc(CS(C)(=N)=O)c2)n1 (stereo not given)
-5.33

What value of EC50 (log10 M) has been recorded for this entry: O=C(Nc1ccc([N+](=O)[O-])cc1Cl)c1cc(Cl)ccc1O [NICOLSAMIDE]
-5.47

What value of EC50 (log10 M) has been recorded for this entry: CCCc1cc(C)[nH]c(=O)c1CNC(=O)c1cc(-c2ccnc(N3CCN(C)CC3)c2)cc2c1cnn2C(C)C [GSK343]
-4.59

What value of EC50 (log10 M) has been recorded for this entry: CCOc1cc(C(C)(C)C)ccc1C1=N[C@@](C)(c2ccc(Cl)cc2)[C@@](C)(c2ccc(Cl)cc2)N1C(=O)N1CCN(CCCS(C)(=O)=O)CC1 [RG7112]
-4.87

Origin of values: the supplement of paper PMC8253809
